Each recorded value in this set is attributed to ChEMBL document CHEMBL1145322.

test: Partition coefficient, log P of the compound; assay type: physicochemical; settings: octanol/water
Listed next: entries and their corresponding logP.

Worked set:
• CC[C@@H](C)[C@H]1C(=O)O[C@H](Cc2ccc(N3CCOCC3)cc2)C(=O)N(C)[C@@H]([C@H](C)CC)C(=O)O[C@H](C)C(=O)N(C)[C@@H](C)C(=O)O[C@H](C)C(=O)N1C = 3.58
• CC[C@@H](C)[C@H]1C(=O)O[C@H](Cc2ccc(N)cc2)C(=O)N(C)[C@@H]([C@H](C)CC)C(=O)O[C@H](C)C(=O)N(C)[C@@H](C)C(=O)O[C@H](C)C(=O)N1C = 2.08
• CC[C@@H](C)[C@H]1C(=O)O[C@H](Cc2ccccc2)C(=O)N(C)[C@@H]([C@H](C)CC)C(=O)O[C@H](C)C(=O)N(C)[C@@H](C)C(=O)O[C@H](C)C(=O)N1C = 4.23
• CCC(C)[C@H]1C(=O)O[C@H](C)C(=O)N(C)[C@@H](C)C(=O)O[C@H](C)C(=O)N(C)[C@@H](C(C)CC)C(=O)O[C@H](C)C(=O)N1C (stereo partly specified) = 3.26
• CC[C@@H](C)[C@H]1C(=O)O[C@H](Cc2cccc(N)c2)C(=O)N(C)[C@@H]([C@H](C)CC)C(=O)O[C@H](C)C(=O)N(C)[C@@H](C)C(=O)O[C@H](C)C(=O)N1C = 2.35

Proceed to the following item.
Prompt: Recorded logP of CC[C@@H](C)[C@H]1C(=O)O[C@H](Cc2ccccc2N)C(=O)N(C)[C@@H]([C@H](C)CC)C(=O)O[C@H](C)C(=O)N(C)[C@@H](C)C(=O)O[C@H](C)C(=O)N1C , please.
Response: 3.18
